Entry source: paper PMC9075979

molecules and their reported reduction in bioreporter signal, method A
# test_target: SARS-CoV-2 spike RBD-ACE2 interaction (Homo sapiens)
# Sequence (Q9BYF1 18-740): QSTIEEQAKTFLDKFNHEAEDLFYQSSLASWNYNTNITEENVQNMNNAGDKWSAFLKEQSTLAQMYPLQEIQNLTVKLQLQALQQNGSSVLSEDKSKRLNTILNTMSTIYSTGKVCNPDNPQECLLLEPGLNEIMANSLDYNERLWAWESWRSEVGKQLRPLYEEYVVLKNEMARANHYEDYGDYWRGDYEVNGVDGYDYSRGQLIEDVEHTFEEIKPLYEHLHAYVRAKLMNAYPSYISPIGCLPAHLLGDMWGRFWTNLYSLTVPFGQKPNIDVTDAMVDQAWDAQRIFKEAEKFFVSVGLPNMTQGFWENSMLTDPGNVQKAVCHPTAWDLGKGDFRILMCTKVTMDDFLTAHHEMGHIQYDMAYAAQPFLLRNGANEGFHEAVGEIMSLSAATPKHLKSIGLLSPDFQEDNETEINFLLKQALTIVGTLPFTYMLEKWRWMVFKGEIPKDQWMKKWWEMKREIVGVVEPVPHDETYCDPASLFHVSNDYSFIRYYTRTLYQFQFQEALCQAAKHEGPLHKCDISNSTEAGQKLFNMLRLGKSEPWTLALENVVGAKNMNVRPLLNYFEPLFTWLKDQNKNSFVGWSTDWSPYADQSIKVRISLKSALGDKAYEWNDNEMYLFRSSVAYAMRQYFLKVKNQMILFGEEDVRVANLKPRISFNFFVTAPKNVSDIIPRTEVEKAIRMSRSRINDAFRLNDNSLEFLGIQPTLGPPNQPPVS
# protocol: biochemical
# Type: binding
# study_conditions: Prestwick library screen, 4 μM, compound added to pre-formed RBD:ACE2 complex
Structures can show the parent of a compound that is named as a salt.
Kindly answer with a numeric value in %, unit omitted.

Worked set:
Clc1ccc(COC(Cn2ccnc2)c2ccc(Cl)cc2Cl)cc1 (stereo not shown) [econazole nitrate, econazole nitrate salt] : −36
CCOC1O[C@H]([C@@H](COCc2ccccc2)OCc2ccccc2)[C@H](OCc2ccccc2)[C@H]1O (stereo partly shown) [tribenoside] : −21
Clc1ccccc1C(c1ccccc1)(c1ccccc1)n1ccnc1 : −21

Let us examine a further case.
Req: What measured reduction in bioreporter signal, method A goes with CC(=O)N1CCN(c2ccc(OCC3COC(Cn4ccnc4)(c4ccc(Cl)cc4Cl)O3)cc2)CC1 (stereo not shown) ?
Resp: −29
